Biological target: OR7C1 (Homo sapiens, UniProt O76099, D296E/G302K/M297V/R299D/T295K/V126I)
Construct: Improved functional expression of modified OR-genes containing the truncated, optimized C-terminus; expressed in transfected cells; host or cells: HEK293T stably expressing human RTP1S(V227I) and RTP2(L220R)
Sequence (O76099 with tags, fused parts or gaps V126I/T295K/D296E/M297V/R299D/G302K): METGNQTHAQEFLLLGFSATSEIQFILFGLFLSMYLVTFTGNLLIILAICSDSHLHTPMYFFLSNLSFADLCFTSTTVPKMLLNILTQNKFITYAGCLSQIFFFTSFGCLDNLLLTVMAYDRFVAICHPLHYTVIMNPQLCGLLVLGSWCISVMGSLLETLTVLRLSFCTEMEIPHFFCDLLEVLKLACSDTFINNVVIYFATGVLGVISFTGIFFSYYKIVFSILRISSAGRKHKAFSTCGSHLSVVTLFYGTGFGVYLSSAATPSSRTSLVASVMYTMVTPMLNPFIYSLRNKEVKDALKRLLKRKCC
Test: CRE-luciferase assay, HEK293T cells expressing OR7C1 (wild-type / modified C-terminus)
Format: cell-based
Settings: OR7C1 variant, 1 μM Ambermax
The entries below are paired with their reported % of the activation by the optimized sequence RNKEVKDALKRLLKRKCC.
Just the number please, in %, no unit attached.

Here are 5 substances together with their reported answers.
Substance: SEQ ID NO: 128 (RNKEVKKALKRLLKRKYP; source 1..18: note = C-terminal domain sequence)
Measured Number: 206.9

Substance: SEQ ID NO: 114 (RNKEVKRAIKRLLKRKCC; source 1..18: note = C-terminal domain sequence)
Measured Number: 262.4

Substance: SEQ ID NO: 158 (RNKEVKDALKRLLKRKCRRRKK; source 1..22: note = C-terminal domain sequence)
Measured Number: 168.8

Substance: SEQ ID NO: 91 (RNKEVKKALKRLLKRKCC; source 1..18: note = C-terminal domain sequence)
Measured Number: 140.8

Substance: SEQ ID NO: 98 (RNKEVKDAVKRLLKRKCC; source 1..18: note = C-terminal domain sequence)
Measured Number: 120.1

Entry SEQ ID NO: 97 (RNKEVKQALKRLLKRKCC; source 1..18: note = C-terminal domain sequence) : reported % of the activation by the optimized sequence RNKEVKDALKRLLKRKCC = ?
128.4

Same question for SEQ ID NO: 94 (RNKEVKRALKRLLKRKCC; source 1..18: note = C-terminal domain sequence) please.
176.6

Same question for SEQ ID NO: 113 (RNKEVKDALKRLLGRKCC; source 1..18: note = C-terminal domain sequence) please.
63.2

Same question for SEQ ID NO: 124 (RNKEVKRALKRLLKRKYP; source 1..18: note = C-terminal domain sequence) please.
239.7

Same question for SEQ ID NO: 10 (RNKEVKDALKRLLKRK; source 1..16: note = C-terminal domain sequence) please.
89.5

Same question for SEQ ID NO: 87 (RNREVKDALKRLLKRKCC; source 1..18: note = C-terminal domain sequence) please.
119.1

Same question for SEQ ID NO: 327 (RNKEVKPALKRLLKRKCC; source 1..18: note = C-terminal domain sequence) please.
−3.7

Same question for SEQ ID NO: 321 (RNKEVKCALKRLLKRKCC; source 1..18: note = C-terminal domain sequence) please.
46.0

Same question for SEQ ID NO: 324 (RNKEVKIALKRLLKRKCC; source 1..18: note = C-terminal domain sequence) please.
81.0

Same question for SEQ ID NO: 193 (RNKEVKDALKHLLKRKCC; source 1..18: note = C-terminal domain sequence) please.
12.3

Same question for SEQ ID NO: 96 (RNKEVKAALKRLLKRKCC; source 1..18: note = C-terminal domain sequence) please.
115.3

Same question for SEQ ID NO: 330 (RNKEVKWALKRLLKRKCC; source 1..18: note = C-terminal domain sequence) please.
17.4

Same question for SEQ ID NO: 191 (RNKEVKDVLKRLLKRKCC; source 1..18: note = C-terminal domain sequence) please.
3.9

Same question for SEQ ID NO: 325 (RNKEVKLALKRLLKRKCC; source 1..18: note = C-terminal domain sequence) please.
108.0

Same question for SEQ ID NO: 105 (RNKEVKDALKRLLKKKCC; source 1..18: note = C-terminal domain sequence) please.
106.7

----------
Biological target: human class II OR identified in the library screening (Homo sapiens, UniProt Q8NG80)
Sequence (Q8NG80 1-296): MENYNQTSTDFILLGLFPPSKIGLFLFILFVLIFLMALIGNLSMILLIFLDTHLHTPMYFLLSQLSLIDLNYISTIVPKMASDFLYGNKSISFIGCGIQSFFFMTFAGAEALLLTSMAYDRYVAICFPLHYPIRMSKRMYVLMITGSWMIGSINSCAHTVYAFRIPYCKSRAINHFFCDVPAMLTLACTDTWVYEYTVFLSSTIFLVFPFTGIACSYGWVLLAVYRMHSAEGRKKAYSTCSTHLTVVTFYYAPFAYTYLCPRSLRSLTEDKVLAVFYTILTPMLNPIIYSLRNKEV
Test: Confirmatory dose-response analysis of library-hit OR with cognate ligand, wild-type vs C-terminal domain SEQ ID NO: 221 (Table 17);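 also: Wild-type receptor sequences expressed from the pcDNA3.1(+) vector and compared with the C-terminally modified receptors in dose-response tests using each receptor's cognate ligand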
Conditions: read-out: Potency, EC50 changed C-term; OR2L5, modified C-terminus SEQ ID NO: 221 (SEQ ID NO: 413)
Assay Endpoint: pEC50
Answer as the number alone; pEC50 is minus log10 of concentration in mol/L.

Entry CCOC(=O)C1CCCCC1 [Ethyl cyclohexanecarboxylate] : reported pEC50 = ?
5.32

----------
The entries below are paired with their reported % of the activation by the optimized sequence RNKEVKDALKRLLKRKCC.
Target: OR2T4 (Homo sapiens, UniProt Q8NH00, D328E/G331D/M330K)
Sequence (Q8NH00 with tags, fused parts or gaps D328E/M330K/G331D): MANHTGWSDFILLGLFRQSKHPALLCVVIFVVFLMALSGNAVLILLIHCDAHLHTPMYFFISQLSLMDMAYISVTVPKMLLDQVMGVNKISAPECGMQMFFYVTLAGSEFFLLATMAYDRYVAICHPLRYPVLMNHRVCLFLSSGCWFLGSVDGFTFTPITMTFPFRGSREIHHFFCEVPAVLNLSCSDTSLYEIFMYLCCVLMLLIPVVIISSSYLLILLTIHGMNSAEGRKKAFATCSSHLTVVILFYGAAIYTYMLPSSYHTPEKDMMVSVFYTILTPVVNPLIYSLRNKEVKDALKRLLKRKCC
Conditions: OR2T4 variant, 8 μM 2-methyl-3-tetrahydrofuranethiol
Just the number please, in %, no unit attached.

Entry SEQ ID NO: 114 (RNKEVKRAIKRLLKRKCC; source 1..18: note = C-terminal domain sequence) : reported % of the activation by the optimized sequence RNKEVKDALKRLLKRKCC = ?
116.6

Same question for SEQ ID NO: 86: optimized C-terminal sequence fused after TM7 of the OR of the assay (RNKEVKDALKRLLKRKCC; source 1..18: note = C-terminal domain sequence) please.
100

Same question for SEQ ID NO: 117 (RNKEVKKAIKRLFKRKCC; source 1..18: note = C-terminal domain sequence) please.
88.2

Same question for SEQ ID NO: 122 (RNKEVKKAIKRLLKRKCR; source 1..18: note = C-terminal domain sequence) please.
102.0

Same question for SEQ ID NO: 133 (RNKEVKDALKRLLKRKCRR; source 1..19: note = C-terminal domain sequence) please.
110.0

Same question for SEQ ID NO: 220 (RNKEVKKAIKRLLKRKCCRRR; source 1..21: note = C-terminal domain sequence) please.
61.9

Same question for SEQ ID NO: 118 (RNKEVKRAIRKLLKRKCC; source 1..18: note = C-terminal domain sequence) please.
98.4

Same question for SEQ ID NO: 150 (RNKEVKDALKRLLKRKCRKK; source 1..20: note = C-terminal domain sequence) please.
96.5

Same question for SEQ ID NO: 149 (RNKEVKDALKRLLKRKCRRR; source 1..20: note = C-terminal domain sequence) please.
135.7

Same question for SEQ ID NO: 221 (RNKEVKKAIKRLFKRKCCRRR; source 1..21: note = C-terminal domain sequence) please.
130.4

Same question for SEQ ID NO: 115 (RNKEVKKAIKRLLKRKCC; source 1..18: note = C-terminal domain sequence) please.
115.2

Same question for SEQ ID NO: 116 (RNKEVKRAIKRLFKRKCC; source 1..18: note = C-terminal domain sequence) please.
77.0

Same question for SEQ ID NO: 121 (RNKEVKRAIKRLLKRKCR; source 1..18: note = C-terminal domain sequence) please.
150.6
